Reference for the values: patent US12528760B2

test: Solubility of Lysine in 2-Methyl-1-propanol; type: physicochemical; details: organic solvent or mixture
PROPERTY LABEL: solubility

COMPOUND	PROPERTY LABEL	REPORTED RESULT
NCCCC[C@H](N)C(=O)O [Lysine]	solubility	~26 mg/mL
